# MEASUREMENT DESCRIPTION: growth suppression of yeast trafficking mutant, preliminary HTS, modulators of trafficking downstream of Golgi apparatus project, 1536-format plate, OD 615 nm (AID 637)
# MEASUREMENT CONDITIONS: yeast transport mutant growth, absorbance 615 nm, 18 h; hits give high values
VALUE TYPE: inhibition (%)

COMPOUND	VALUE TYPE	UNIT ABBREVIATION	ASSAY RESULT
Cc1csc(OCc2ccc(C#N)cc2)n1	inhibition	%	3.97
NS(=O)(=O)c1ccc(CCNC(=O)CCC2COc3ccccc3O2)cc1 (configuration not stated)	inhibition	%	0.16
COc1ccc(OC)c(S(=O)(=O)N2CCC(C(=O)NCc3ccccc3OC)CC2)c1	inhibition	%	-4.03
O=C(NCC(F)(F)F)Nc1cccnc1	inhibition	%	-4
CCOCC(=O)Nc1nc2ccc(OC)cc2s1	inhibition	%	5.57
COc1cccc(N2CCN(c3ncnc4c3[nH]c3ccc(F)cc34)CC2C)c1 (configuration not stated)	inhibition	%	29.6
Cc1ccc(CC2SC(=O)NC2=O)cc1Cl (configuration not stated)	inhibition	%	-2.26

---

# MEASUREMENT DESCRIPTION: reversal of MRP1-mediated doxorubicin resistance, pilot screen, H69AR cells, doxorubicin co-treatment (AID 601)
# MEASUREMENT CONDITIONS: H69AR cells + 2 uM doxorubicin, CellTiter-Glo, 72 h; at 10 µM; hits give high values
Listed below: differential viability (reversal) values for each entry.

COMPOUND	UNIT ABBREVIATION	differential viability (reversal)
CC1=C(C#N)C(c2ccc3ncccc3c2)C(C#N)=C(C)N1	%	-1.7
CCCCn1c(SCc2cccnc2)nc2c1c(=O)n(C)c(=O)n2C	%	13.7
Cn1c(Cc2ccccc2)nnc1SCC(=O)N1CCOCC1	%	6.17
CC1CCCN(S(=O)(=O)c2ccc(C(=O)Nc3nnc(-c4ccccc4Cl)o3)cc2)C1 (stereo not given)	%	-19
COc1ccc2c(=O)c3c(=O)n(Cc4ccco4)c(-c4cc(OC)c(OC)c(OC)c4)nc3oc2c1	%	-1.67

---

# MEASUREMENT DESCRIPTION: 384-well plate pilot, post-Golgi transport modulator project, inhibition of yeast transport mutant growth (AID 636)
# MEASUREMENT CONDITIONS: absorbance 615 nm, about 18 h, hits give high values
VALUE TYPE: inhibition (%)

COMPOUND	UNIT ABBREVIATION	ASSAY RESULT
CCc1nnc(NC(=O)OCc2ccccc2)s1	%	-0.91
COC(=O)c1ccc(COc2ccc(C3C4=C(CCCC4=O)Nc4onc(C)c43)cc2)cc1 (centres undefined)	%	-5.19
COc1ccccc1N1CCN(C(=O)c2ccc3nc(-c4ccco4)c(-c4ccco4)nc3c2)CC1	%	-4.67
CCOC(=O)C1CCCn2c1nc1sc3c(c1c2=O)CCCC3 (centres undefined)	%	0.27
COC(=O)CCN(C(=O)c1ccc2c(c1)OCO2)c1ccccn1	%	-8.22
COc1ccc(C)cc1NC(=O)CN1CCN(S(=O)(=O)c2ccc(Cl)cc2)CC1	%	-3.55
Cc1ccc2nc(C3CCN(CC(=O)N4CCCCCC4)CC3)[nH]c2c1	%	-1.1
C/C(Cl)=C\Cn1c(NCCc2ccccc2)nc2c1c(=O)n(C)c(=O)n2C	%	-7.97
C1=CC2CC1CC2CN1CCN(c2ccccc2)CC1 (centres undefined)	%	1.45
N#Cc1c(N2CCCC2)nc(N)c2c(N)nc(N3CCCC3)cc12	%	-0.13
Brc1ccc2[nH]ncc2c1	%	-2.5
CN1CC=C2C(C#N)=C(N)C(C#N)(C#N)C(c3cccc(Cl)c3Cl)C2C1 (centres undefined)	%	-4.67
CC(C)(C)OC(=O)N1CCOCCOCCN(C(=O)OC(C)(C)C)CCOCCOCC1	%	-3.16
COc1c2ccoc2nc2c(OC)c(OCC(O)C(C)(C)O)ccc12 (centres undefined)	%	-2.8
COc1ccccc1C(=O)NCC(c1cccnc1)N(C)C (centres undefined)	%	-7.12
CC(COc1ccccc1)N(CCCl)Cc1ccccc1 (centres undefined)	%	-0.65
CC(CCc1ccccc1)NC(=O)CSc1nc(N)cc(N)n1 (centres undefined)	%	-0.68
Nc1cc(=O)[nH]c(SCC(=O)Nc2ccc(Br)cc2)n1	%	-0.52
Cc1nc2ccc(C(=O)O)cc2c2c1CC(C)S2 (centres undefined)	%	-4.93
N#CC1=C(N)N(c2ccc(Oc3ccccc3)cc2)C(=O)C1	%	-5.62
O=C(NCc1n[nH]c(=S)n1-c1ccc(F)cc1)c1ccco1	%	-0.53
N#Cc1cnc(SCCc2ccccc2)nc1N	%	-5.14
CCCOc1ccc(N2C(=O)CC(NCCCN3CCC(C(N)=O)CC3)C2=O)cc1 (centres undefined)	%	-1.97
Nc1nc(-c2ccc(Cl)cc2)cc(C(F)(F)F)n1	%	-1.82

---

# MEASUREMENT DESCRIPTION: reversal of MRP1-mediated doxorubicin resistance, pilot screen, H69AR cells, doxorubicin co-treatment (AID 601)
# MEASUREMENT CONDITIONS: H69AR cells + 2 uM doxorubicin, CellTiter-Glo, 72 h; at 10 µM; hits give high values
Calls of active or inactive are those of the source.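 Rule for the calls: active = viability loss from added drug above about 55%, and viability with drug at most 40%, in both replicates (limit read from the data, passing the limit was not always enough); inconclusive = both conditions met in only one replicate; inactive = neither replicate meets both conditions.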
Listed below: differential viability (reversal) values for each entry.

MOLECULE	differential viability (reversal)
COc1ccc(C2(C(=O)Nc3c(C)n(C)n(-c4ccccc4)c3=O)CCCC2)cc1OC	21.9% (inactive)
CC(C)(C#N)Nn1cnnc1	-4.76% (inactive)
Cc1cc(Cl)c(S(=O)(=O)Nc2ccc3c(c2)OCCO3)cc1OCC(N)=O	11.7% (inactive)
O=C(CSCc1cccs1)N1CCCC1	13.8% (inactive)
CCOC(=O)C1CCCN(c2nc3ccccc3nc2C(C#N)C(=O)NCc2ccccc2)C1 (stereo unspecified)	0.385% (inactive)
OC(CCCN1CCC(O)(c2ccc(Cl)cc2)CC1)c1ccc(F)cc1 (stereo unspecified)	-6.19% (inactive)

---

# MEASUREMENT DESCRIPTION: reversal of MRP1-mediated doxorubicin resistance, pilot screen, H69AR cells, doxorubicin co-treatment (AID 601)
# MEASUREMENT CONDITIONS: H69AR cells + 2 uM doxorubicin, CellTiter-Glo, 72 h; at 10 µM; hits give high values

COMPOUND	UNIT ABBREVIATION	differential viability (reversal)
CC1(C)Cc2c(sc3c2c(=N)n(Cc2ccco2)c(=O)n3Cc2ccccc2)CO1	%	28.9
COc1cc2nc(SCC(=O)NC3CC3)n(CCC3=CCCCC3)c(=O)c2cc1OC	%	9.46
CC(C)=CCSc1nnc(CCNC(=O)OC(C)(C)C)o1	%	17.2
CCOC(=O)c1ccc(N=Cc2nc(-c3ccccc3)oc2OC(C)=O)cc1	%	-5.29
O=C(Cn1c(=O)n(CC2CCCO2)c(=O)c2ccccc21)c1ccccc1 (centres undefined)	%	-7.53
O=C(CSc1nc(N2CCCCC2)nc(N2CCCCC2)n1)Nc1nccs1	%	4.8
CCCCN1CN(S(=O)(=O)c2cccs2)c2nc3ccccc3nc21	%	-5.09
Cc1nc2ccccc2c(=O)n1NC(=O)c1c(O)c2c(n(CC(C)C)c1=O)CCCC2	%	-17.2
Cc1cccc2cc(C#N)c(NCCNC(=O)NC3CCCCC3)nc12	%	-7.59
Cc1nn(Cc2ccccc2Cl)c(C)c1NC(=O)C1C2CCC(O2)C1C(=O)O (centres undefined)	%	3.11
Cn1c(=O)c2c(nc(N3CCN(c4ccccc4)CC3)n2CCCc2ccccc2)n(C)c1=O	%	1.85
CS(=O)(=O)Nc1ccc(C(=O)NCc2ccc3c(c2)OCO3)cc1	%	0.675
Cc1ccc(-c2nnc(N3CCN(C(=O)CN4C(=O)c5ccccc5C4=O)CC3)c3ccccc23)cc1	%	-0.335
O=C(OCCCN1C(=O)c2ccccc2C1=O)c1ccco1	%	1.29
CCOc1cc(NC(=O)c2ccccn2)c(OCC)cc1NC(=O)CC(C)C	%	-6.29
CNc1nnc(-c2cccc(N(C)C)c2)s1	%	7.45
COC1=CC(=O)CC(C)C12Oc1c(Cl)c(OC)cc(OC)c1C2=O (centres undefined)	%	-31.8
CCn1c(=N)n(CC(=O)c2ccco2)c2ccccc21	%	-38.3
CCCCOc1ccccc1C1C(C(N)=O)=C(C)Nc2nnnn21 (centres undefined)	%	6.69
C/C(Cl)=C\Cn1c(Nc2ccc(C)cc2)nc2c1c(=O)n(C)c(=O)n2C	%	-11.2
CC(O)Cn1cnc2c1c(=O)n(C)c(=O)n2C (centres undefined)	%	-0.25
CN(C)C(=O)COc1ccc2cc(-c3ccccc3)c(=O)oc2c1	%	-2.2
Oc1ccc(C=Nc2cccc3ncccc23)c(O)c1	%	-3.45
CC(C)(C)c1ccc(OCC(=O)O)cc1	%	13.4
CCCNC(=O)c1c(N)n(-c2cc(OC)cc(OC)c2)c2nc3ccccc3nc12	%	-9.04
C=CCn1c(N)c(C(=O)OC(C)(C)C)c2nc3ccccc3nc21	%	-15.9
CCOc1cccc2cc(C(=O)N3CCN(C/C=C/c4ccccc4)CC3)c(=O)oc12	%	22.8
CCCCCC1CC(CC#CCN2CCOCC2)C(=O)O1 (centres undefined)	%	1.16
CCOc1ccc(OCC)c(NC(=O)C2CCN(c3ncccn3)CC2)c1	%	-12.5
O=C1CN(C(=O)COC(=O)C23CC4CC(CC(O)(C4)C2)C3)c2ccccc2N1	%	10.6
CCn1c(CSc2nnc(-c3cccnc3)n2-c2ccccc2C)nc2cc(C(=O)O)ccc21	%	11.4
C(=C\c1ccccc1)/CN1CCN(C(c2ccccc2)c2ccccc2)CC1	%	-2.73
OC(CN1CCCCC1)Cn1c(C(F)(F)F)nc2ccccc21 (centres undefined)	%	-3.04
O=C(COC(=O)CCC1CCCC1)Nc1ccc(Cl)cn1	%	5.36
Cc1ccc(N2CCN(CCc3nc4cc(NS(C)(=O)=O)ccc4n3C)CC2)cc1	%	3.72
COc1ccc(CCN(C)CCCC(C#N)(c2cc(OC)c(OC)c(OC)c2)C(C)C)cc1OC (centres undefined)	%	-5.51
CCc1nc(N[C@@H](Cc2c[nH]c3ccccc23)C(=O)O)c2oc3ccccc3c2n1	%	-14.6
COc1ccc(S(=O)(=O)NCCOc2ccccc2)cc1OC	%	-2.55
CC1(C)S[C@@H]2[C@H](NC(=O)[C@H](C(=O)O)c3ccsc3)C(=O)N2[C@H]1C(=O)O	%	2.32
Cc1cc(C)nc(SC2=CS(=O)(=O)c3ccccc32)n1	%	-7.5
Cc1ccc2c(c1)N(CC(=O)N1CCCCC1c1cccnc1)C(=O)CO2 (centres undefined)	%	-4.01
COC(=O)c1c(NC(=O)C2CC=CCC2C(=O)O)sc(C(N)=O)c1C (centres undefined)	%	4.23
O=C(CCNS(=O)(=O)c1ccc(Br)s1)N1CCCCC1	%	7.65
CCOC(=O)Cc1cc(=O)n2[nH]c(C)c(-c3ccc(OC)cc3)c2n1	%	9.51
